# Lookup of reported normalized growth keyed by entry
assay: chemical genetic growth profiling, strain panel (AID 1159580);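 note: tested at 20 µM; growth read once vehicle control cultures reached saturation at 30 °C; 1 = growth at the plate median or of vehicle wells; lower values mean less growth of the strain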; settings: S. cerevisiae deletion strains, growth OD, locus YPL106C, strain sse1, active compounds read low
About 2,000 (36%) of roughly 5,500 compounds were called active. Inconclusive results (about 18%) are left out. This is one part of the list.
Number only, please.

Observe how each entry below is paired with its result.
molecule=CCCc1nc(C)c2c(=O)[nH]c(-c3cc(S(=O)(=O)N4CCN(CC)CC4)ccc3OCC)nn12 metric_name="normalized growth" readout_value=0.868
molecule="CC12CCC(=O)C=C1CCc1ccccc12 (centres undefined)" metric_name="normalized growth" readout_value=0.973
molecule=CCCc1nn(C)c2c(=O)[nH]c(-c3cc(S(=O)(=O)N4CCN(C)CC4)ccc3OCC)nc12 metric_name="normalized growth" readout_value=0.977
molecule=Cc1c(C(N)=O)cc([N+](=O)[O-])cc1[N+](=O)[O-] metric_name="normalized growth" readout_value=1.06

Value lookup for normalized growth; key = "CN(C)CC[C@H](c1ccc(Cl)cc1)c1ccccn1"
1.01

I am curious: what normalized growth value has been reported for C[C@@H]1CC[C@@]23CCC4(C)[C@@](C=CC5[C@@]6(C)CCC(=O)C(C)(C)C6CC[C@]54C)(OC2=O)C3[C@H]1C (some centres undefined) ?
1.01

Name the recorded normalized growth for "O=S(=O)(O)O" .
0.946

###

# Lookup of reported normalized growth keyed by entry
assay: chemical genetic growth profiling, strain panel (AID 1159580);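 note: tested at 20 µM; growth read once vehicle control cultures reached saturation at 30 °C; 1 = growth at the plate median or of vehicle wells; lower values mean less growth of the strain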; conditions: S. cerevisiae deletion strains, growth OD, locus YLR262C, strain YPT6, active compounds read low
The whole screen tested about 5,500 compounds, of which about 2,000 (36%) were called active. Inconclusive results (about 18%) are left out. The list shows a part of the results.
Kindly provide the number alone.

Take a look at these entries with their results.
compound="C/C=C/CC(C)C(O)C1C(=O)NC(CC)C(=O)N(C)CC(=O)N(C)C(CC(C)C)C(=O)NC(C(C)C)C(=O)N(C)C(CC(C)C)C(=O)NC(C)C(=O)NC(C)C(=O)N(C)C(CC(C)C)C(=O)N(C)C(CC(C)C)C(=O)N(C)C(C(C)C)C(=O)N1C (centres undefined)" metric_name="normalized growth" readout_value=0.509
compound=O=C1c2ccccc2C(=O)N1CN1CCC(O)(c2ccc(Cl)cc2)CC1 metric_name="normalized growth" readout_value=0.93
compound=NC(=O)c1ccccc1O metric_name="normalized growth" readout_value=0.986
compound=CCOC(=O)c1cnc2n(c1=O)CCS2 metric_name="normalized growth" readout_value=0.996
compound=O=[N+]([O-])c1ccc(Oc2c(Cl)cccc2Cl)c(Cl)c1Oc1c(Cl)cccc1Cl metric_name="normalized growth" readout_value=0.949

// lookup normalized growth for "O=C(/C=C(\O)c1ccccc1)c1ccccc1O"
0.463

###

experiment: chemical genetic growth profiling, strain panel (AID 1159580);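 note: tested at 20 µM; growth read once vehicle control cultures reached saturation at 30 °C; 1 = growth at the plate median or of vehicle wells; lower values mean less growth of the strain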; conditions: S. cerevisiae deletion strains, growth OD, locus YNL175C, strain NOP13, active compounds read low
Hit rate of the full screen: of about 5,500 compounds, about 2,000 (36%) were called active. About 18% were inconclusive and are not listed. This is one part of the list.
// reported normalized growth per item

compound=O=C(CCCN1CCC(O)(c2ccc(Cl)cc2)CC1)c1ccc(F)cc1 metric_name="normalized growth" readout_value="0.664 (active)"
compound=CC(=O)c1ccc(S(=O)(=O)NC(=O)NC2CCCCC2)cc1 metric_name="normalized growth" readout_value="0.983 (inactive)"
compound=COc1ccccc1N1CCN(CCN(C(=O)c2ccc(F)cc2)c2ccccn2)CC1 metric_name="normalized growth" readout_value="1.01 (inactive)"

Requested read-out: normalized growth. Entry: "Cc1cc(N)c2ccccc2[n+]1CCCCCCCCCCCCCC[n+]1c(C)cc(N)c2ccccc21"
0.0676 (active)

So what does the record say about normalized growth for "NCCS(=O)O" ?
1 (inactive)

What value of normalized growth has been reported for the following compound? "NCCCP(=O)(O)O"
0.978 (inactive)

Reported normalized growth, compound "CN[C@@H]1C[C@@H](c2ccc(Cl)c(Cl)c2)c2ccccc21" : ____
1 (inactive)

// lookup normalized growth for COc1cccc(OC)c1OCCNCC1CSc2ccccc2O1 (centres undefined)
0.986 (inactive)

Record request: normalized growth value, item "CCCN(CCC)C(=O)Cc1c(-c2ccc(Cl)cc2)nc2c(Cl)cc(Cl)cn12"
1.03 (inactive)

Find the recorded normalized growth belonging to "O=C(O)CN(CCOCCOCCN(CC(=O)O)CC(=O)O)CC(=O)O" and report it.
0.996 (inactive)

Item "COc1ccccc1N1CCN(CCCNc2cc(=O)n(C)c(=O)n2C)CC1" has what recorded normalized growth?
1 (inactive)

Which measured normalized growth value corresponds to "Cc1cc(N)c2ccccc2[n+]1CCCCCCCCCC[n+]1c(C)cc(N)c2ccccc21" ?
0.0762 (active)

# lookup: normalized growth of CCC1(O)C(=O)OCc2c1cc1n(c2=O)Cc2cc3ccccc3nc2-1 (centres undefined)
0.998 (inactive)

Need normalized growth, item "CC(=O)O[C@]1(C(C)=O)CC[C@H]2[C@@H]3C=C(Cl)C4=CC(=O)[C@@H]5C[C@@H]5[C@]4(C)[C@H]3CC[C@@]21C"
1.03 (inactive)

Which normalized growth value belongs to COC(=O)C(N)Cc1ccc(Cl)cc1 (centres undefined) ?
0.965 (inactive)

Recorded normalized growth for "O=C(O)C1=CC(=C(c2ccc(O)c(C(=O)O)c2)c2ccc(O)c(C(=O)O)c2)C=CC1=O" , please?
1 (inactive)

From: PubChem BioAssay AID1159580
